reported.metric: melting point

// known answers, use as guide
[[record]]
compound = "O=C(c1ccc(O[C@H]2C[C@H](N3CCCCC3)C2)cc1)N1CC(O)C1 [Compound 11]"
reported_value = "82.2 to 82.4 °C"

[[record]]
compound = "O=C(c1ccc(O[C@H]2C[C@H](N3CCCCC3)C2)cc1)N1CCC(F)(F)C1 [Compound 9]"
reported_value = "115.2 to 115.8 °C"

[[record]]
compound = "O=C(c1ccc(O[C@H]2C[C@H](N3CCCCC3)C2)cc1)N1CCCCC1 [Compound 3]"
reported_value = "101.1 to 102.2 °C"


Parameters: items (list). Returns: melting point for each item.
1. O=C(c1ccc(O[C@H]2C[C@H](N3CCCCC3)C2)cc1)N1CCOCC1 [Compound 1]
2. CC(C)N1CCN(C(=O)c2ccc(O[C@H]3C[C@H](N4CCCCC4)C3)cc2)CC1 [Compound 4]
3. O=C(c1ccc(O[C@H]2C[C@H](N3CCCCC3)C2)cc1)N1CCC(F)(F)CC1 [Compound 2]
4. O=C(c1ccc(O[C@H]2C[C@H](N3CCCCC3)C2)cc1)N1CCS(=O)(=O)CC1 [Compound 8]

[out]
["135 to 136 °C", "98.5 to 99 °C", "145 to 146 °C", "186.5 to 186.9 °C"]

Parameters: items (list). Returns: melting point for each item.
1. O=C(Nc1cnccc1Cl)c1ccc(O[C@H]2C[C@H](N3CCCCC3)C2)cc1 [Compound 12]
2. O=C(NCC(F)(F)F)c1ccc(O[C@H]2C[C@H](N3CCCCC3)C2)cc1 [Compound 13]
3. CC(=O)N1CCN(C(=O)c2ccc(O[C@H]3C[C@H](N4CCCCC4)C3)cc2)CC1 [Compound 10]

[out]
["151.6 °C", "152.9 to 153.4 °C", "159.2 to 159.8 °C"]

[in] Can you share its melting point? I mean this compound: O=C(c1ccc(O[C@H]2C[C@H](N3CCCCC3)C2)cc1)N1CCC(O)CC1 [Compound 5]
[out] 57.4 to 57.8 °C
